# pIC50 per record follows
assay_info: Inhibition of TrxR (unknown origin) expressed in MHCC97H cells incubated for 24 hrs by colorimetric assay
Type: cell-based, Homo sapiens
Worth noting: pIC50 values are minus log10 of concentrations stated in mol/L.

1. CN(C)CC[Se]c1cnc(-c2cccc(Cn3nc(-c4cccc(C#N)c4)ccc3=O)c2)nc1	6.38
2. N#Cc1cccc(-c2ccc(=O)n(Cc3cccc(-c4ncc([Se]CCCN5CCCCC5)cn4)c3)n2)c1	6.18
3. N#Cc1cccc(-c2ccc(=O)n(Cc3cccc(-c4ncc([Se]CCN5CCCC5)cn4)c3)n2)c1	6.10

Continue with the compound presented below.
Look up and report measured pIC50 for this entry: N#Cc1cccc(-c2ccc(=O)n(Cc3cccc(-c4ncc([Se]CCCN5CCOCC5)cn4)c3)n2)c1 6.93

Data credit: ChEMBL document CHEMBL5512666
